Data credit: ChEMBL document CHEMBL3879911

tgt: NEDD8 activating enzyme (Homo sapiens)
Sequence (Q8TBC4 whole entry): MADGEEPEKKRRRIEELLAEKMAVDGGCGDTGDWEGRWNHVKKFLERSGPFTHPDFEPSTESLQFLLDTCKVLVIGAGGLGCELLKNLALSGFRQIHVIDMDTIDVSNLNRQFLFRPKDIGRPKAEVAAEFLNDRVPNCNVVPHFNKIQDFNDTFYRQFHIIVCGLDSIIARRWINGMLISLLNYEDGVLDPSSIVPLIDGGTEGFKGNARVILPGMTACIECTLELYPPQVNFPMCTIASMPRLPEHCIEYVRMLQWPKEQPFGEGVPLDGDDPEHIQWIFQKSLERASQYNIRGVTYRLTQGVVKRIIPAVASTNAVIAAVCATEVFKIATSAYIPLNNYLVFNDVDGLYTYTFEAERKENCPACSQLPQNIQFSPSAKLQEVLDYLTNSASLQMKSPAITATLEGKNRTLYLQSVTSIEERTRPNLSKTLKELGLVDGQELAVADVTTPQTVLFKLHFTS
Sequence (Q13564 whole entry, further chain): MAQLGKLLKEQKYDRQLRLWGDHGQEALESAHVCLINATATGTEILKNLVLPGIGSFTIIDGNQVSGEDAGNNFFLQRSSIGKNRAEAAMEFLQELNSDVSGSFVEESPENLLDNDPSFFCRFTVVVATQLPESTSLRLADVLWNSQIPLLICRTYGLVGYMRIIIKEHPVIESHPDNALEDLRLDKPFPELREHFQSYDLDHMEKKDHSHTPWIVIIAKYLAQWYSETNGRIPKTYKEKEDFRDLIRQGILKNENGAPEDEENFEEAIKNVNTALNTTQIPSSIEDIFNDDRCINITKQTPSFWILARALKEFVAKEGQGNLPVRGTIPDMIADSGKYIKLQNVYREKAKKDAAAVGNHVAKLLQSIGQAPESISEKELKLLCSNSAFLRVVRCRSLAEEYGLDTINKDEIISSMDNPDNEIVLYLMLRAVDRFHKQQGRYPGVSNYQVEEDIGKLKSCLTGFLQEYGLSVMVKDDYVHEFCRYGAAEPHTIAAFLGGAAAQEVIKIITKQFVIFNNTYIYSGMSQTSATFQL
methodDescription: Inhibition of recombinant human NAEalpha/N-terminal His-tagged NAEbeta expressed in baculovirus infected insect Sf9 cells using N-terminal FLAG tagged Nedd8 as substrate incubated for 105 mins in presence of N-terminal GST-tagged Ubc12 by FRET assay
endpointLabel: IC50

givenSmiles | IC50
NS(=O)(=O)OC[C@H]1C[C@@H](Nc2ccnc(C(=O)N[C@H]3CCc4ccccc43)c2)[C@H](O)[C@@H]1O | > 10000 nM
CO[C@H]1CC(C)(C)c2ccccc2[C@H]1Nc1cc(O[C@@H]2C[C@@H](COS(N)(=O)=O)[C@@H](O)C2)ncn1 | ≤ 500 nM
NS(=O)(=O)OC[C@H]1C[C@@H](Nc2ncnc3[nH]c(-c4ccccc4)nc23)[C@H](O)[C@@H]1O | ≤ 500 nM
NS(=O)(=O)OC[C@@H]1C[C@@H](Nc2ncnc3[nH]c(-c4ccccc4OC(F)(F)F)nc23)C[C@@H]1O | ≤ 500 nM
NS(=O)(=O)OC[C@H]1C[C@@H](Nc2cc(N[C@H]3CCc4c(F)cccc43)ncn2)[C@H](O)[C@@H]1O | ≤ 500 nM

// returns reported IC50 for input NS(=O)(=O)OC[C@@H]1C[C@@H](Oc2cc(OCc3ccc4ccccc4c3)ncn2)C[C@@H]1O
500 to 10000 nM

// returns reported IC50 for input CN(c1cc(N[C@H]2CCc3ccccc32)ncn1)[C@@H]1C[C@H](COS(N)(=O)=O)[C@@H](O)[C@H]1O
≤ 500 nM

// returns reported IC50 for input NS(=O)(=O)OC[C@@H]1C[C@@H](Nc2ncnc3[nH]c(-c4ccccc4Cl)nc23)C[C@@H]1O
≤ 500 nM

// returns reported IC50 for input NS(=O)(=O)OC[C@H]1C[C@@H](Nc2cc(N[C@H]3CCC[C@@H]3OCc3ccccc3)ncn2)[C@H](O)[C@@H]1O
500 to 10000 nM

// returns reported IC50 for input CC1(C)C[C@H](Nc2cc(O[C@@H]3C[C@@H](COS(N)(=O)=O)[C@@H](O)C3)ncn2)c2ccccc21
≤ 500 nM

// returns reported IC50 for input CN(c1ncnc2[nH]c(-c3cccc4ccccc34)nc12)[C@@H]1C[C@@H](COS(N)(=O)=O)[C@@H](O)C1
≤ 500 nM

// returns reported IC50 for input NS(=O)(=O)OC[C@@H]1C[C@@H](Oc2cc(N3CCc4ccccc4C3)ncn2)C[C@@H]1O
> 10000 nM

// returns reported IC50 for input NS(=O)(=O)OC[C@@H]1C[C@@H](Nc2ncnc3[nH]c(-c4cccc(Cl)c4)nc23)C[C@@H]1O
≤ 500 nM

====

tgt: NEDD8 activating enzyme (Homo sapiens)
methodDescription: Inhibition of recombinant human NAEalpha/N-terminal His-tagged NAEbeta expressed in baculovirus infected insect Sf9 cells using N-terminal FLAG tagged Nedd8 as substrate incubated for 105 mins in presence of N-terminal GST-tagged Ubc12 by FRET assay
pIC50: −log10 of the molar value.
Form field: pIC50 (one value per entry).

Record excerpt, results attached:
givenSmiles | pIC50
NS(=O)(=O)OC[C@@H]1C[C@@H](Oc2cc(N3Cc4ccccc4C3)ncn2)C[C@@H]1O | 5.00 to 6.30
OC[C@@H]1C[C@@H](Nc2ncnc3[nH]c(-c4cccc5c4CCCC5)nc23)C[C@@H]1O | 5.00 to 6.30
Cn1c(-c2ccccc2)nc2ncnc(N[C@@H]3C[C@@H](COS(N)(=O)=O)[C@@H](O)C3)c21 | 5.00 to 6.30
CO[C@H]1Cc2ccccc2[C@H]1Nc1ncnc(N[C@@H]2C[C@@H](COS(N)(=O)=O)[C@@H](O)C2)n1 | ≥ 6.30
NS(=O)(=O)OC[C@H]1C[C@@H](Nc2cc(N[C@H]3CCc4ccccc43)ncn2)[C@H](O)[C@@H]1O | ≥ 6.30

// returns reported pIC50 for input NS(=O)(=O)OC[C@@H]1C[C@@H](Oc2ncnc3[nH]c(-c4cccc5ccccc45)nc23)C[C@@H]1O
≥ 6.30

// returns reported pIC50 for input NS(=O)(=O)OC[C@@H]1C[C@@H](Oc2ncnc3nc(-c4cncc5ccccc45)[nH]c23)C[C@@H]1O
≥ 6.30

// returns reported pIC50 for input NS(=O)(=O)OC[C@@H]1C[C@@H](Nc2ncnc3[nH]c(-c4ccccc4-c4ccccc4)nc23)C[C@@H]1O
5.00 to 6.30

// returns reported pIC50 for input CC1(C)C[C@H](Nc2cc(N[C@@H]3C[C@@H](COS(N)(=O)=O)[C@@H](O)C3)ncn2)c2ccccc21
≥ 6.30

// returns reported pIC50 for input NS(=O)(=O)OC[C@H]1C[C@@H](Nc2cc(N[C@H]3CCCc4ccccc43)ncn2)[C@H](O)[C@@H]1O
≥ 6.30

// returns reported pIC50 for input NS(=O)(=O)OC[C@@H]1C[C@@H](Nc2cc(N[C@H]3CCc4ccccc43)nc(=O)[nH]2)C[C@@H]1O
5.00 to 6.30

// returns reported pIC50 for input CN(C)C[C@H]1Cc2ccccc2[C@H]1Nc1cc(O[C@@H]2C[C@@H](COS(N)(=O)=O)[C@@H](O)C2)ncn1
5.00 to 6.30
